test: Selectivity index, ratio of CC50 for human CEM-SS cells to EC50 for antiviral activity against HIV-1 infected in human CEM-SS cells in presence of ddA; assay type: toxicity, cell-based; conditions: read-out: Ratio CC50/EC50
measure.name: selectivity ratio

Ask: Dear colleague, I am looking for the recorded selectivity ratio of the following compound: Nc1ccn([C@H]2CC[C@@H](CO)O2)c(=O)n1 [ZALCITABINE]
Result: 4600

====

experiment: Cytotoxicity against human CEM-TK(-) cells assessed as reduction in cell viability incubated for 5 days in presence of AZT by MTT assay; format: cell-based; details: time 5 day
measure.name: CC50 at 120 h (µM)
Answers are plain numbers, in µM.

Ask: Dear colleague, I am looking for the recorded CC50 at 120 h of the following molecule: `Nc1ccn([C@H]2CC[C@@H](CO)O2)c(=O)n1`
Result: 8.3
